target: Rat IKK-2 (Rattus norvegicus); experiment: Rat IKK-2 enzyme assay; type: biochemical; settings: read-out: IC50 (μM) rIKK-2
Sequence (Q9QY78 whole entry): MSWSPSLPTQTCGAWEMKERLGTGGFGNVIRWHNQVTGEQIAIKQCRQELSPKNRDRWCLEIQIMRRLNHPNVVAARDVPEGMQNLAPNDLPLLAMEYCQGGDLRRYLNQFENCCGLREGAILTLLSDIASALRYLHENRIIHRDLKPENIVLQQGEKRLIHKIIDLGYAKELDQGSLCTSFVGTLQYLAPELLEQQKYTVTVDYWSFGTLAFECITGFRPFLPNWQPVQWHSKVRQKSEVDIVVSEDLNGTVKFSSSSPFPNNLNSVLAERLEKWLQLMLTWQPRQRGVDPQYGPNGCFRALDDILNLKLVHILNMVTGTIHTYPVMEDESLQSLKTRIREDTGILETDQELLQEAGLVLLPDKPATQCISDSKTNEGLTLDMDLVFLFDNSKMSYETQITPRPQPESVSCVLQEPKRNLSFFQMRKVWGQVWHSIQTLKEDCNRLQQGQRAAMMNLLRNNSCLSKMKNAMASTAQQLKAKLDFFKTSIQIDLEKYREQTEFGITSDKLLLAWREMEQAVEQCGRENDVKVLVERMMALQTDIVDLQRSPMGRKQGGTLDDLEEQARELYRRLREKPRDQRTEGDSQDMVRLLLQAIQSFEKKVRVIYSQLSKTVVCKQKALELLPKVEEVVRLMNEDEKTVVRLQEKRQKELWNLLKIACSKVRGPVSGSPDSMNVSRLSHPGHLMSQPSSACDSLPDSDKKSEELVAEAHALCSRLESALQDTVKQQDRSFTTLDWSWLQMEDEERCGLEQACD
I'd appreciate it if you could supply IC50 values for the items below.
Numbers only, in µM.

Some entries whose results are on file:
NC(=O)Nc1cn(-c2ccc(-c3ccc(O)cc3)c(Cl)c2)nc1C(N)=O [Example 272] = 0.167
N#CCCc1cccc(-c2ccc(-n3cc(NC(N)=O)c(C(N)=O)n3)cc2)c1 [Example 186] = 0.475
NC(=O)Nc1cn(-c2ccc(-c3cc(F)ccc3O)c(F)c2)nc1C(N)=O [Example 263] = 0.482
CC(C)(C)OC(=O)COc1cccc(-c2ccc(-n3cc(NC(N)=O)c(C(N)=O)n3)cc2)c1 [Example 174] = 2.49
CN(C)CCN(C)C(=O)c1ccc(-c2ccc(-n3cc(NC(N)=O)c(C(N)=O)n3)cc2)cc1F [Example 160] = 7.19

Quick batch: IC50 for everything below.
1. NC(=O)COc1cc(F)ccc1-c1ccc(-n2cc(NC(N)=O)c(C(N)=O)n2)cc1F [Example 268]
2. Cc1ccc(-n2cc(NC(N)=O)c(C(N)=O)n2)cc1F [Example 326]
3. NC(=O)Nc1cn(-c2cccc(Cl)c2F)nc1C(N)=O [Example 273]

[out]
1: 0.175; 2: 0.365; 3: 0.203

Quick batch: IC50 for everything below.
1. Cc1cc(-n2cc(NC(N)=O)c(C(N)=O)n2)ccc1I [Example 8]
2. NC(=O)COc1ccccc1-c1ccc(-n2cc(NC(N)=O)c(C(N)=O)n2)cc1F [Example 266]
3. COc1ccccc1-c1ccc(-n2cc(NC(N)=O)c(C(N)=O)n2)cc1F [Example 267]
4. NC(=O)Nc1cn(-c2ccc(S(=O)(=O)c3ccccc3F)c(Cl)c2)nc1C(N)=O [Example 271]

[out]
1. 0.089
2. 0.392
3. 2.75
4. 0.956

[in] // fetch IC50 given entry COc1ccc(-n2cc(NC(N)=O)c(C(N)=O)n2)cc1Cl [Example 209]
[out] 1.08
